- targetUnderTest: NADPH oxidase 4 (Homo sapiens) (UniProt Q9NPH5)
- Sequence (Q9NPH5 whole entry, looked up): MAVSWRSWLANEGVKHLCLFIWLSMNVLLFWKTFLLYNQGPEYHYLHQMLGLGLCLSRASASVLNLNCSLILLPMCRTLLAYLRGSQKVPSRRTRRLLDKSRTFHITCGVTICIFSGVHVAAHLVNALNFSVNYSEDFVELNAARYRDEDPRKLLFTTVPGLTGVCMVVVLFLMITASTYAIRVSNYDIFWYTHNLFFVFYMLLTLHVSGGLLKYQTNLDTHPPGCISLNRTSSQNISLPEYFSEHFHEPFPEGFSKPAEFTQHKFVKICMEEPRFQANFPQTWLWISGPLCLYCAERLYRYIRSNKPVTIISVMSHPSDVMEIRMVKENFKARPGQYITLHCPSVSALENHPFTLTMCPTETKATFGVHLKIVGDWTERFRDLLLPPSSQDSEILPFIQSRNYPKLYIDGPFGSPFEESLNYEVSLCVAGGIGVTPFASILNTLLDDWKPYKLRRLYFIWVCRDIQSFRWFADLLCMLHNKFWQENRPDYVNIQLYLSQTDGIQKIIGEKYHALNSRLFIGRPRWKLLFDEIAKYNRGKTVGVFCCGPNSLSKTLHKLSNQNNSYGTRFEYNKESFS
- testProtocol: NOX4-dependent H2O2 signal modulators, primary screen, NOX inhibitor project, cell-based, HEK293-NOX4, tetracycline-induced, Amplex Red fluorescence (AID 1160)
- reportedConditions: 45 min, higher = more signal, called active from +8 up or from −8 down
Respond with Condition met for z-score values of -0.6 and above, Condition not met for values below.

Use these answered entries as a reference point.
[Q] For this molecule, is measured z-score -0.6 or higher? COCCOC(=O)N1C(=O)[C@@]2(c3cc(C#Cc4ccc(OC)cc4)ccc31)[C@H](c1ccccc1OCCO)N1[C@H](c3ccccc3)[C@H](c3ccccc3)OC(=O)[C@H]1[C@@H]2C(=O)N1CCN(c2ncccn2)CC1
[A] Condition met

[Q] Hi team, for CN1C(=O)C2C=CC(C(O)c3ccccc3)N(Nc3ccccc3)C2C1=O (stereo unspecified) , is the recorded z-score at or above -0.6?
[A] Condition not met

[Q] Determine whether this molecule has z-score no lower than -0.6: COCCOC(=O)N1C(=O)[C@@]2(c3cc(C#Cc4ccc(OC)cc4)ccc31)[C@H](C(=O)N1CCCCCCC1)[C@H]1C(=O)O[C@H](c3ccccc3)[C@H](c3ccccc3)N1[C@@H]2c1ccc(OCCO)cc1
[A] Condition met

[Q] Dear colleague, could you confirm whether O=C1c2ccccc2[C@@]2(Cc3ccccc3N(CCN3CCOCC3)C2=O)[C@H](c2ccc(CO)cc2)N1Cc1ccccc1 has z-score at or above -0.6?
[A] Condition met

[Q] Can [N-]=[N+]=Nc1ccccc1[C@H]1OC(c2ccc(OCCCO)cc2)=N[C@@]1(Cc1ccccc1)C(=O)O be said to have z-score at or above -0.6?
[A] Condition met

Next molecule, please.
[Q] State whether the measured z-score reaches -0.6, counting equality as reaching it, for [N-]=[N+]=NCc1ccccc1C[C@]1(C(=O)N2CCOCC2)N=C(c2ccc(OCCCO)cc2)O[C@H]1c1ccccc1N=[N+]=[N-]
[A] Condition not met

###

- targetUnderTest: Follistatin (Homo sapiens) (UniProt P19883)
- Sequence (P19883 whole entry, looked up): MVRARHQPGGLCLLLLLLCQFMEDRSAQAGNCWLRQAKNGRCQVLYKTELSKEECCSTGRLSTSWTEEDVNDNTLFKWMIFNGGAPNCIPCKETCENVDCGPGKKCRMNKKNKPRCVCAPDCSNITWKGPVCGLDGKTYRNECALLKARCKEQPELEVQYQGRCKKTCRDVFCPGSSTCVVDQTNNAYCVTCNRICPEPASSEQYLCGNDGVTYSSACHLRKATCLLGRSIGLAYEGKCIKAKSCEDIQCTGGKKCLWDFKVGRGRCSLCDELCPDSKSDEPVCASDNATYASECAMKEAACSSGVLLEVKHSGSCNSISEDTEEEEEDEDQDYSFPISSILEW
- testProtocol: follistatin binders on small-molecule microarrays, primary screen, biochemical, small-molecule microarray, 635/667 nm fluorescence (AID 1132)
- reportedConditions: FST binding, 635 nm fluorescence, higher = more signal
# if value of composite z-score reaches 1, tag fulfilled; if it stays below, tag not fulfilled

Take a look at these entries with their results.
[Q] State whether the measured composite z-score reaches 1, counting equality as reaching it, for C=CCN1C(=O)[C@]2(O[C@H](CCO)[C@@H]([Si](C)(C)c3ccc(OC)cc3)[C@@H]2C)c2cc(N3CCCCC3=O)ccc21
[A] fulfilled

[Q] Tell me whether composite z-score is at least 1 here: COc1ccc(C(O)C2C=CC3C(=O)NC(=O)C3N2Nc2ccccn2)cc1 (stereo not given)
[A] not fulfilled

[Q] Is composite z-score for COCC(=C=CC[C@H](O)c1ccccc1OCCO)C[C@H](O)c1cc(Cl)cc(Cl)c1O at or above 1?
[A] not fulfilled

[Q] Does the reported composite z-score for O=C1c2ccccc2[C@@]2(Cc3ccccc3N(CC(F)(F)F)C2=O)[C@H](c2ccc(CO)cc2)N1Cc1ccccc1Cl fall at or above the 1 mark?
[A] fulfilled

[Q] # check: composite z-score of O=C(NCc1ccccc1)[C@@]1(Cc2ccccc2)N=C(c2ccc(OCCCO)cc2)O[C@H]1c1ccccc1 is greater than or equal to 1
[A] not fulfilled

[Q] State whether the measured composite z-score reaches 1, counting equality as reaching it, for C[C@@]1([C@@H](NC(=O)c2ccccc2)c2ccc(-c3ccccc3)cc2)C[C@H]1C1CCCCC1
[A] not fulfilled

[Q] Determine whether measured composite z-score meets or exceeds 1 for C=C(COC)/C(=C/C[C@@H](OC(C)=O)c1ccc(OCCO)cc1)c1cc(C(=O)OC)ccc1OC
[A] fulfilled

[Q] Would you say O=C(NCC(F)(F)F)[C@@H]1c2ccccc2C(=O)N(C2CCCCC2)[C@H]1c1ccc(CO)cc1 shows composite z-score at minimum 1?
[A] not fulfilled

[Q] Quick check, composite z-score >= 1? Cc1ccc(S[C@]2(C(=O)NC3CC3)CC(=O)N(C3Cc4ccccc4C3)[C@@H]2c2ccc(CO)cc2)cc1
[A] not fulfilled

[Q] Entry COCCCN1C(=O)[C@@]2(Cc3ccccc31)c1ccccc1C(=O)N(Cc1ccccc1C(F)(F)F)[C@H]2c1ccc(CO)cc1 : is its composite z-score no less than 1?
[A] fulfilled

Others:
[Q] Item COC(=O)[C@@]1(Cc2ccccc2)[C@H]2c3cc(C(=O)N4CCCC4)n(CC4CC4)c3C[C@H]2CN1C(=O)c1ccccc1 with composite z-score of 1 or above?
[A] not fulfilled

[Q] Given CN(C)C(=O)[C@]1(Cc2ccccc2CN=[N+]=[N-])N=C(c2ccc(OCCCO)cc2)O[C@@H]1c1ccccc1CN=[N+]=[N-] , state whether its composite z-score is at least 1.
[A] fulfilled

[Q] Say whether COc1cc2c(cc1OC)CN(C(=O)[C@H]1[C@@H]3C(=O)O[C@@H](c4ccccc4)[C@@H](c4ccccc4)N3[C@@H](c3ccc(O)cc3)[C@]13C(=O)Nc1ccc(C#CC4=CCCCC4)cc13)CC2 shows composite z-score of 1 or more.
[A] fulfilled

[Q] State whether the measured composite z-score reaches 1, counting equality as reaching it, for COCCCN1C(=O)[C@@]2(c3ccc([N+](=O)[O-])cc3)CC(=O)N(C3CCCCC3)[C@@H]2c2ccc(CO)cc21
[A] fulfilled

[Q] Hi, just wondering whether CCN(CC)c1ccc(N2CC=CC34O[C@@H]5/C=C\CCC(C)OC(=O)C5[C@H]3C(=O)N(C(CO)C(C)C)[C@@H]4C2=O)cc1 (stereo not given in full) shows composite z-score of 1 or higher.
[A] not fulfilled

###

- targetUnderTest: Alpha-bungarotoxin (Bungarus multicinctus) (UniProt P60615)
- Sequence (P60615 whole entry, looked up): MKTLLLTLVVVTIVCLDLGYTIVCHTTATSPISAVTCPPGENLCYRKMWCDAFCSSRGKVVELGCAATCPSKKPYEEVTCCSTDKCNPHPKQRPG
- testProtocol: alpha-bungarotoxin binders on microarray, profiling panel, artefact control for SMM control protein annotation, biochemical, small-molecule microarray, Alexa647 label, 635/667 nm fluorescence (AID 1117)
- reportedConditions: alpha-BTX-A647 binding fluorescence, higher = more signal
propertyLabel: composite z-score
One number for each entry.

Below, 2 compounds whose answers are already recorded.
Measured composite z-score of COC(=O)[C@@]1(Cc2ccccc2)[C@H]2c3cc(C(=O)N(C)C)n(CCSCCO)c3C[C@H]2CN1C(=O)c1ccccc1 : 0.317

Lookup result for C=CCN1C(=O)[C@]2(O[C@H](CCO)[C@@H]([Si](C)(C)c3ccc(OC)cc3)[C@@H]2C)c2cc(N3C(=O)c4cccc5cccc3c45)ccc21 ; measured composite z-score: 0.3

List reported composite z-score for each of these compounds:
1. COCCCNC(=O)C1N=C(c2ccc(OCCCO)cc2)N(c2ccccc2)O1 (stereo not drawn)
2. COC(=O)[C@@]1(Cc2ccc(OC)cc2)[C@H]2c3cc(C(=O)N(C)C)n(CCN4CNCC4=O)c3C[C@H]2CN1C(=O)c1ccccc1
3. CS(=O)(=O)CCOC(=O)C1=CC(CCCO)=CC(c2ccc(CN3CCCC3)cc2)N(Cc2cc3c(cc2Br)OCO3)C=C1C(=O)OCCS(C)(=O)=O (stereo not drawn)
4. CC(C)[C@@H](CO)NC(=O)[C@H]1[C@@H](c2ccccc2)N(c2ccccc2)O[C@@H]1C
5. CC(C)(C)OC(=O)CC[C@]12N=C(c3ccc(OCCCO)cc3)O[C@H]1c1ccccc1N(CCS(=O)(=O)c1ccccc1)C2=O
6. CCCCCC1=C2CNC(CCC)(C(=O)OC)C=C2C(C)C1=O (stereo not drawn)
7. CC(C)(C)OC(=O)CC[C@@]12N=C(c3ccc(OCCCO)cc3)O[C@@H]1c1ccccc1N(CCS(=O)(=O)c1ccccc1)C2=O

[A]
1: 0.649; 2: -0.124; 3: 1.62; 4: 0.0366; 5: 1.41; 6: 0.334; 7: 1.35

###

- testProtocol: MM1S cell viability effects, profiling panel, calcein-AM fluorescence, 48 h, basal (AID 1165);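 further: viability of MM1S multiple myeloma cells under basal unstimulated conditions; test concentration not given here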
- reportedConditions: higher = more signal
propertyLabel: z-score
One number for each entry.

Form field z-score, entry C=CC[C@@]1(C(N)=O)N=C(c2ccc(OCCCO)cc2)O[C@@H]1c1ccccc1CN=[N+]=[N-] : 0.204

Item: CCC(CC)C(O)C1C=CC2C(=O)N(C)C(=O)C2N1Nc1ccccc1 (centres undefined) | z-score: -0.299

z-score in this record for CC(=O)NCCCC[C@@H]1NC(=O)[C@@H]2C[C@H](C(=O)NCCCCN(C)C)[C@H](c3cccc(OCCO)c3)N2C1=O : -0.589

Recorded result, Cc1ccc(S[C@]2(C(=O)NCCN3CCOCC3)CC(=O)N(Cc3ccccc3Cl)[C@@H]2c2ccc(CO)cc2)cc1 , z-score: 0.368

Looking up COc1ccc(COC2OC[C@]3(C)[C@H]4C5=C(CN3C(=O)OC(C)(C)C)[C@H](C)C(CO)C(CO)C5CC[C@@H]24)cc1 (some centres undefined) , I found its z-score recorded as 0.0355

# batch size: 2; output z-score per entry
1. CC(C)N1C(=O)[C@@]2(Cc3ccccc31)c1ccccc1C(=O)N(C1CCCCC1)[C@H]2c1ccc(CO)cc1
2. C=CCOC(=O)[C@@H]1[C@H]2C(=O)O[C@H](c3ccccc3)[C@H](c3ccccc3)N2[C@H](c2ccc(OCCOC(=O)[C@@H]3C[C@@H]4C(=O)N[C@@H](CCCCN(C)C)C(=O)N4[C@@H]3c3ccc(O)cc3)cc2)[C@@]12C(=O)Nc1ccc(I)cc12

[A]
-0.546
-0.7

I need z-score for every entry listed below, if you could help.
1. COc1ccc([Si](C)(C)[C@H]2[C@H](CC(=O)N3Cc4ccccc4C[C@H]3CO)O[C@@]3(C(=O)N(Cc4ccc(N5CCC5=O)cc4)c4ccccc43)[C@@H]2C)cc1
2. O=C1NC(=O)C2C1C=CC(C(O)c1ccccc1)N2Nc1ccc(Cl)cc1Cl (centres undefined)

[A]
1. -2.32
2. -3.55

Give z-score for all molecules that follow.
1. O=C1c2ccccc2[C@](Cc2ccccc2I)(C(=O)NC2CC2)[C@H](c2ccc(CO)cc2)N1Cc1ccccc1
2. CN(C)CCCNC(=O)[C@@]1(c2ccc([N+](=O)[O-])cc2)CC(=O)N(C2CCCCC2)[C@@H]1c1ccc(CO)cc1I
3. C#CCN(CC1=CCCCC1)[C@H](c1ccccc1Br)[C@@H](O)Cc1ccccc1
4. CCc1oc(CC[C@@H](CO)NC(=O)NCCn2cc(C3(O)CCCCC3)nn2)c(C(=O)OC)c1C(=O)OC
5. COCCCN1C(=O)[C@@]2(c3ccc([N+](=O)[O-])cc3)CC(=O)N(C3CCCCC3)[C@@H]2c2ccc(CO)cc21
6. CCCCC(=C=CC[C@@H](O)c1ccccc1OCCO)CCO
7. [N-]=[N+]=NCc1ccccc1[C@@H]1OC(c2ccc(OCCCO)cc2)=N[C@]1(Cc1ccccc1N=[N+]=[N-])C(=O)N1CCOCC1
8. CCOC(=O)[C@H]1C/C=C/C[C@H](C(=O)OCC)C(=O)O[C@H]2[C@@H](OC)O[C@H](CO)[C@@H](OC(=O)Nc3ccc(C#N)cc3)[C@@H]2OC1=O

[A]
1: -0.349; 2: -3.86; 3: -2.26; 4: -0.0035; 5: 0.819; 6: -0.0292; 7: -1.48; 8: -3.15

Could you tell me z-score for each of these molecules? They are listed below.
1. O=C(c1ccccc1)N1Cc2ccccc2[C@@H]2OC(c3ccc(OCCCO)cc3)=N[C@]2(Cc2ccccc2)C1=O
2. CCOC(=O)C=Cc1cc([N+](=O)[O-])ccc1O
3. CCOC(=O)C[C@H]1[C@H](OC(=O)Cc2ccc3c(c2)OCO3)[C@@H](NC(=O)c2ccc(-c3ccccc3)cc2)c2cc(OCCCO)ccc2N1C(=O)c1ccc2ccccc2n1
4. COc1ccc([Si](C)(C)[C@H]2[C@H](CCO)O[C@@]3(C(=O)N(Cc4ccc(N5C(=O)COc6ccccc65)cc4)c4ccccc43)[C@@H]2C)cc1
5. COc1ccc(C(O)C2C=CC3C(=O)N(c4ccccc4)C(=O)C3N2Nc2ccc(C(C)C)cc2)cc1OCc1ccccc1 (centres undefined)
6. [N-]=[N+]=NCc1ccccc1C[C@]1(C(=O)NCC(O)CO)N=C(c2ccc(OCCCO)cc2)O[C@H]1c1ccccc1 (some centres undefined)
7. O=C1OCC=C[C@H]2OC34C=CCN(c5ccc6ccccc6c5)C(=O)[C@H]3N(CCCCCCO)C(=O)[C@@H]4[C@@H]12 (some centres undefined)

[A]
1. -2.02
2. 0.112
3. 0.218
4. -2.36
5. -0.737
6. -2.42
7. 1.38

These data points were gathered from PubChem BioAssay.
